Reference source: PubChem BioAssay

# test_target: Short transient receptor potential channel 4 (Mus musculus) (UniProt Q9QUQ5)
# Sequence (Q9QUQ5 whole entry, looked up): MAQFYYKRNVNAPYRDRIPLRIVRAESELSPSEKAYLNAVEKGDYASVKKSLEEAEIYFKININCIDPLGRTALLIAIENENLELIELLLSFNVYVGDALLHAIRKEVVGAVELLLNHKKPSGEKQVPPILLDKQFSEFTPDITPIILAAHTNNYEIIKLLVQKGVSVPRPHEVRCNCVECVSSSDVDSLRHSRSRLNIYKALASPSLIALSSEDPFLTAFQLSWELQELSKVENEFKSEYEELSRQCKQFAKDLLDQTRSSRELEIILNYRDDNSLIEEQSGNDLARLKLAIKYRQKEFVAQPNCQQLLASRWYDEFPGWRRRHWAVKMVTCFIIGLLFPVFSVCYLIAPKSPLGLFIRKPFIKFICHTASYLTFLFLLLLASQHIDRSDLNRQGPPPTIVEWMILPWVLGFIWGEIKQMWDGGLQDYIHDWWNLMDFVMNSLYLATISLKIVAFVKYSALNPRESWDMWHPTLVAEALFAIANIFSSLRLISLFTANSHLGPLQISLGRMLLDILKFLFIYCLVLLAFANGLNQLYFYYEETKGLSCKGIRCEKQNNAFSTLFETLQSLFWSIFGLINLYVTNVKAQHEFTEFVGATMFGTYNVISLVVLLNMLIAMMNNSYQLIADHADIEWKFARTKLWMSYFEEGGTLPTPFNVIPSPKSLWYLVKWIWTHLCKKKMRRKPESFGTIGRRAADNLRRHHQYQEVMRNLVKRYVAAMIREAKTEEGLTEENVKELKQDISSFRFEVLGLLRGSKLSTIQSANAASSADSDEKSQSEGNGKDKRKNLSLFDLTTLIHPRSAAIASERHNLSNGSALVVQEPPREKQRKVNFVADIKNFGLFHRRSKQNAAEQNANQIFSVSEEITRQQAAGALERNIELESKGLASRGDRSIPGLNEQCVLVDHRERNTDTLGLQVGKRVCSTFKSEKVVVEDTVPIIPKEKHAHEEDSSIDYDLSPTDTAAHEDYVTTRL
# test_method_notes: blockers of DAMGO-evoked TRPC4 calcium flux – cell-based, Fluo4, HEK293 TRPC4beta/mu-opioid, confirmation (AID 2636)
# condition_parameters: at 10 µM
The source made the active and inactive calls.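 Rule for the calls: active = calcium signal cut by more than 3 SD below the full-agonist control yet still positive, in both repeats and the earlier primary screen; inactive = the rest.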
Log the outcome using a class from true (active), false (inactive)

Q: Called result for Cc1ccc2c(c1)C1CN(C)CCC1N2C(=S)NC(=O)c1ccc(Br)cc1 (configuration not stated)
A: false

Q: Called result for "CCNC(=S)N/N=C/c1cc(C)n(-c2ccc(Cl)cc2)c1C"
A: false

Q: Called result for "CC(=O)c1ccc2c(c1)N(C)c1ccccc1S2"
A: true

Q: Called result for "COc1ccc(CN2CCC(n3nccc3NC(=O)CCc3ccccc3)CC2)c(C)c1C"
A: false

Q: Called result for CCC1CCCCN1Cc1nc2c(c(=O)n(C)c(=O)n2C)n1Cc1ccccc1 (configuration not stated)
A: true

Q: Called result for "CCCCOc1ccc(Nc2cc(Cl)ccc2C(=O)O)cn1"
A: false

Q: Called result for CN1C(CC(=O)Nc2ccc(Br)cc2)c2ccccc2CC1(C)C (configuration not stated)
A: false

Q: Called result for "O=C(CN1CCCCC1)Nc1ccccc1Oc1ccccc1"
A: true

Q: Called result for "C/C=C(/C)C(=O)O[C@@H]1c2cc(OC)c(OC)c(OC)c2-c2c(cc3c(c2OC)OCO3)C[C@H](C)[C@]1(C)O"
A: false

Q: Called result for "Cc1c(CCOC(=O)c2cccc([N+](=O)[O-])c2)sc[n+]1CC(=O)c1ccccc1"
A: true

Q: Called result for "CN(C)CCCN(C(=O)c1ccc(S(=O)(=O)N2CCCCCC2)cc1)c1nc2c(F)cc(F)cc2s1"
A: false

Q: Called result for Cc1ccc(CNC(=O)CCC2CCCN(Cc3cc4ccccc4o3)C2)o1 (configuration not stated)
A: false
